Molecular target: T1, A beta oligomer (synthetic A beta1-40, HCl form, 0.1 mg/ml in PBS, incubated at 37 degrees C for one hour) (UniProt P05067 672-711)
T1 construct: domain: A beta1-40; non-fibrous multimer of the peptide; also called A beta 1-40 oligomer
Test: SPR (Biacore 3000)
# maps each entry to its pKd
To interpret pKd, take it as minus log10 of a concentration measured in moles per litre.

IR-095 antibody (antibody, mouse IgG2b, V domains shown, mouse IgG2b) VH: QVTLKESGPGILQPSQTLSLTCSFSGFSLSTSGMGVSWIRQPSGKGLEWLAHIYWDDDKRYNPSLKSRLTISKDTSRNQVFLKITSVDTADTATYYCARRAPRLYYGYDAMDYWGQGTSVTVSS VL: DVLMTQTPLSLPVSLGDQASISCRSSQSIVHSNGNTYLEWYLQKPGQSPKLLIYKVSNRFSGVPDRFSGSGSGTDFTLKISRVEAEDLGVYYCFQGSHVPLTFGAGTKLELK : 7.46
IR-063 antibody (antibody, mouse IgG2b, V domains shown, mouse IgG2b) VH: DVQLVESGGGLVQPGGSRKLSCAASGFTFSSFGMHWVRQAPEKGLEWVAYISSGSSTIYYADTVKGRFTISRDNPKNTLFLQMTSLRSEDTAMYYCAREGDFDYWGQGTTLTVSS VL: DVVMTQTPLSLPVSLGDQASISCRSSQSLVHSNGNTYLHWYLQKPGQSPKLLIYKVSNRFSGVPDRFSGSGSGTDFTLKISRVEAEDLGVYFCSQSTHVPLTFGAGTKLELK : 5.90
IR-135 antibody (antibody, V domains shown, mouse IgG2a) VH: QVQLQQSGAELAKPGASVKMSCKASGYTFTSYWMHWVKQRPGQGLEWIGYINPSTGYTEYNQKFKDKATLTADKSSSTAYMQLSSLTSEDSAVYYCDYYGSSYGYFDVWGAGTTVTVSS VL: DVVMTQTPLSLPVSLGDQASISCRSSQSLVHSNGNTYLHWYLQKPGQSPKLLIYKVSNRFSGVPDRFSGSGSGTDFTLKISRVEAEDLGVFFCSQSTHVPLTFGAGTKLELK : 5.89
IR-124 antibody (antibody, mouse IgG2a, V domains shown, mouse IgG2a) VH: DVQLVESGGGLVQPGGSRKLSCAASGFTFSSFGMHWVRQAPEKGLEWVAYISSGSSTIYYADTVKGRFTISRDNPKNTLFLQMTSLRSEDTAMYYCAIYYYGSSYYWGQGTTLTVSS VL: DVLMTQTPLSLPVSLGDQASISCRSSQSIVHSNGNTYLEWYLQKPGQSPKLLIYKVSNRFSGVPDRFSGSGSGTDFTLKISRVEAEDLGVYYCFQGSHVPPTFGAGTKLELK : 6.85

Then there is this binder:
[in] Please give the documented pKd of IR-155 antibody (antibody, V domains shown, mouse IgG2a) VH: DVQLVESGGGLVQPGGSRKLSCAASGFTFSSFGMHWVRQAPEKGLEWVAYISSGSSTIYYADTVKGRFTISRDNPKNTLFLQMTSLRSEDTAMYYCARLDGYRGDYWGQGTTLTVSS VL: DVVMTQTPLSLPVSLGDQASISCRSSQSLVHSNGNTYLHWYLQKPGQSPKLLIYKVSNRFSGVPDRFSGSGSGTDFTLKISRVEAEDLGVYFCSQSTHVPLTFGSGTKLEIK
[out] 5.98
